Would you kindly list melting point for each of these compounds?
Answers are plain numbers, in °C.

INSERT INTO measurements (compound, recorded_endpoint, observed_value) VALUES
  ('CC(C)CN(CC(C)C)CC(C)C', 'melting point', -21.8),
  ('COC(OC)(C(=O)c1ccccc1)c1ccccc1', 'melting point', 66),
  ('CC(C)(C)OC(=O)NO', 'melting point', 57);

Dear colleague, could you please provide melting point for the compounds listed below?
1. C=C(C)C1CCC(C)=CC1c1c(O)cc(CCCCC)cc1O (stereo unspecified)
2. ClC(Cl)(Cl)CC(Cl)(Cl)Cl
3. FC(F)(F)c1cc(-c2cccs2)nc2cc(-c3cccs3)nn12
4. Ic1cc(I)cc(I)c1

Result:
1. 67
2. -27
3. 158
4. 184

* * *

param class (str): category from melting point; see ranges lower range (below 90 °C), middle range (90 °C to below 200 °C), upper range (200 °C or more)

Examples from the recorded data:
INSERT INTO results (molecule, group) VALUES
  ('Nc1nn2c(C(F)(F)F)cc(=O)[nH]c2c1/N=N/c1c(Cl)cc(Cl)cc1Cl', 'upper range'),
  ('COC(=O)c1ccc(OC)nc1', 'lower range'),
  ('COc1ccc(-c2ccc(S(=O)(=O)NCC(=O)O)cc2)cc1', 'middle range'),
  ('COc1ccc(-c2oc3c(C)c(OC)cc(OC)c3c(=O)c2C)cc1OC', 'upper range'),
  ('NC(=O)CC(O)C(=O)O (stereo not drawn)', 'middle range');

Task: Which class is correct for the following molecule? CCOc1ccc(NC(=O)C(C(F)(F)F)C(F)(F)F)cc1
Result: middle range

Task: Which class is correct for the following molecule? S=C(SN1CCOCC1)N1CCOCC1
Result: middle range

Task: Which class is correct for the following molecule? CCCCCCC1CCCCC1
Result: lower range

Task: Which class is correct for the following molecule? CC(=O)Nc1ccc([N+](=O)[O-])c(Br)c1
Result: middle range

Task: Which class is correct for the following molecule? O=Cc1cnc(Br)s1
Result: middle range

Task: Which class is correct for the following molecule? COc1c(F)cc(O)cc1F
Result: lower range

* * *

Output 1.0 for records whose melting point is lower than 100 °C, 0.0 for records at or above 100 °C.

INSERT INTO measurements (compound, group) VALUES
  ('CCc1ccc(CCOc2ccc(CC3SC(=O)NC3=O)cc2)nc1 (stereo not given)', 0.0),
  ('O=C(O)c1c(C(=O)O)c(C(=O)O)c(C(=O)O)c(C(=O)O)c1C(=O)O', 0.0),
  ('C=CCOC1=NS(=O)(=O)c2ccccc21', 0.0),
  ('Sc1nccn1-c1cc(Cl)ccc1Cl', 0.0),
  ('O=C(NC(=O)C(F)(F)F)C(F)(F)F', 1.0);

Task: Identify whether the compound CNC[C@H](O)[C@@H](O)[C@H](O)[C@H](O)CO records melting point below 100 °C.
Result: 0.0

Task: Identify whether the compound CC(C)(C(=O)O)c1ccc(Cl)cc1 records melting point below 100 °C.
Result: 0.0

Task: Identify whether the compound c1ccc(SCCSc2ccccc2)cc1 records melting point below 100 °C.
Result: 1.0

Task: Identify whether the compound CC(C)(C)N(CCO)CCO records melting point below 100 °C.
Result: 1.0

Task: Identify whether the compound Cn1[nH]c(N)c2c(=O)ccnc1-2 records melting point below 100 °C.
Result: 0.0

Task: Identify whether the compound CCCN(CCC)C(=O)Cc1c(-c2ccc(Cl)cc2)nc2ccc(Cl)cn12 records melting point below 100 °C.
Result: 0.0

* * *

Would you kindly list melting point for each of these compounds?

Some solved entries appear below for comparison.
INSERT INTO measurements (compound, observed_value) VALUES
  ('N#CC(C=O)c1ccc(Cl)cc1 (stereo unspecified)', '157 °C'),
  ('CC(=O)Nc1ccc(OC(F)(F)F)cc1', '115 to 117 °C'),
  ('C[C@@]12CCC[C@@H]1C1=C(CC2)[C@@]2(C)CCC(=O)CC2CC1 (stereo partly specified)', '77 to 78 °C'),
  ('Cc1ccc(C#N)c(=O)[nH]1', '293 to 295 °C'),
  ('N#CCc1ccc(Cc2ccccc2)cc1', '35.5 °C');

Now turn to the next compound.
Task: Quick check: melting point of CCOC(=O)c1c(-c2ccccc2)csc1NC(=O)c1ccc(Cl)cc1 ?
Result: 171 to 172 °C

* * *

Would you kindly list melting point for each of these compounds?

INSERT INTO measurements (compound, observed_value) VALUES
  ('O=Cc1c(O)cc(Cl)cc1Cl', '52 °C'),
  ('CC(=O)Nc1ccc(Br)c(C(F)(F)F)c1', '116 to 119 °C'),
  ('CC(C)(C)P(=O)(O)O', '188 to 192 °C');

Dear colleague, could you please provide melting point for the compounds listed below?
1. CC1CCC2(C)CCC3(C)C(=CCC4C5(C)CCC(O)C(C)(C)C5CCC43C)C2C1C (stereo not drawn)
2. O=Cc1ccc(-c2ccncc2)cc1
3. CCCCCCCCCCCCCC=CC(O)C(N)CO (stereo not drawn)
4. O=C(O)CC(c1ccccc1)c1ccccc1
5. Cc1cc(C)c(I)c(C)c1
6. CC(C)(C)N(NC(=O)c1ccccc1)C(=O)c1ccccc1C(F)(F)F
7. Oc1ccc(I)cn1
8. CCCCCCCCCCCC(C)C

Result:
186 °C
101 to 104 °C
81 to 82 °C
150 to 155 °C
29 °C
172 °C
190 °C
-25 °C

Dear colleague, could you please provide melting point for the compounds listed below?
1. Cc1nc([N+](=O)[O-])c(Br)[nH]1
2. O=S(=O)(O)CS(=O)(=O)O

Result:
["256 to 257 °C", "98 °C"]

* * *

Would you kindly list melting point for each of these compounds?
One number for each entry, in °C.

Some solved entries appear below for comparison.
INSERT INTO results (compound, measure_unit, observed_value) VALUES
  ('ClCCI', '°C', -15.6),
  ('Nc1cccc2c(O)nnc(O)c12', '°C', 330),
  ('Nc1cccc([N+](=O)[O-])c1[N+](=O)[O-]', '°C', 122),
  ('SCCCS', '°C', -79),
  ('CC/C(CCCc1ccccc1)=N\NC(N)=O', '°C', 149);

Dear colleague, could you please provide melting point for the compounds listed below?
1. O=C(C=Nc1ccccc1)c1ccc(C(=O)C=Nc2ccccc2)cc1
2. c1ccc2c(c1)cnc1ccccc12
3. CCC1(CC)C(=O)C=CNC1=O
4. CC1=CC(=O)NS(=O)(=O)O1
5. S=C(SC(=S)N1CCCCC1)N1CCCCC1
6. OC1OCC(Cc2ccc3c(c2)OCO3)C1Cc1ccc2c(c1)OCO2 (configuration not stated)
7. CCNc1nc2c(cc1C(=O)OCC)c(=O)oc1ccccc12
8. c1ccc2c(c1)CCc1ccccc1C1(OCCO1)C21OCCO1

Result:
1: 155; 2: 107; 3: 90.7; 4: 123; 5: 110; 6: 132; 7: 186; 8: 111

Dear colleague, could you please provide melting point for the compounds listed below?
1. CC12CCC(C(COC=O)C1=O)C2(C)C (configuration not stated)
2. N#CCc1ccccc1Br
3. CC=Cc1ccc(OC)c(OC)c1
4. O=C(C=Cc1ccc(O)cc1)c1ccccc1
5. Nc1ccc(NC(=O)C(F)(F)F)cc1

Result:
1. 74
2. 19
3. 18
4. 184
5. 118

* * *

Would you kindly list melting point for each of these molecules?
Numbers only, in °C.

Some solved entries appear below for comparison.
INSERT INTO results (molecule, observed_value) VALUES
  ('O=C(O)c1cc(F)ccc1[N+](=O)[O-]', 135),
  ('CCOC(=O)C1=C(C)NC(=O)NC1c1ccc([N+](=O)[O-])cc1 (configuration not stated)', 208),
  ('Oc1c(F)cc(Br)cc1Br', 32),
  ('CN(C)CCN1C(=O)c2ccccc2Nc2cc(Cl)ccc21', 166),
  ('O=C(NCO)NCO', 126);

Dear colleague, could you please provide melting point for the molecules listed below?
1. NC(=O)CCCCC(N)=O
2. Clc1ncccc1-c1ccc(Br)nc1

Result:
226
161

Task: Quick check: melting point of CCOC(=O)C(C)(C)N1CCN(c2ccc(Cl)cc2)CC1 ?
Result: 56

* * *

Would you kindly list melting point for each of these compounds?
Give bare numbers, in °C.

Some solved entries appear below for comparison.
INSERT INTO results (compound, observed_value) VALUES
  ('Clc1cccc(Cl)c1-c1nnn[nH]1', 203),
  ('O=C(c1ccccc1)c1cccc(C(=O)c2ccccc2)c1', 98.5),
  ('COc1cc(C)cc(OC)c1C=O', 93),
  ('O=S(=O)(Cl)c1cc(Cl)c(O)c(Cl)c1', 119),
  ('NCCP(=O)(O)O', 296);

Dear colleague, could you please provide melting point for the compounds listed below?
1. C=CCc1ccc(OC)c(OC)c1
2. CC(=O)c1nn2c(nc(=O)c3ccccc32)s1
3. CC(=O)CS(C)(=O)=O
4. OC(c1ccc(F)cc1)(c1ccc(F)cc1)c1ccc(F)cc1
5. COc1cc(C(=O)OCCCl)cc(OC)c1OC
6. CC12C=CC(=O)C=C1CCC1C3CC(O)C(O)(C(=O)CO)C3(C)CC(O)C12F (stereo not drawn)

Result:
[70, 199, 54, 92, 69, 269]

These entries and their values trace back to a melting point compilation (Tetko et al.).
